- Tested System: Human histamine H1 (Homo sapiens, UniProt P35367)
- Sequence (P35367 whole entry): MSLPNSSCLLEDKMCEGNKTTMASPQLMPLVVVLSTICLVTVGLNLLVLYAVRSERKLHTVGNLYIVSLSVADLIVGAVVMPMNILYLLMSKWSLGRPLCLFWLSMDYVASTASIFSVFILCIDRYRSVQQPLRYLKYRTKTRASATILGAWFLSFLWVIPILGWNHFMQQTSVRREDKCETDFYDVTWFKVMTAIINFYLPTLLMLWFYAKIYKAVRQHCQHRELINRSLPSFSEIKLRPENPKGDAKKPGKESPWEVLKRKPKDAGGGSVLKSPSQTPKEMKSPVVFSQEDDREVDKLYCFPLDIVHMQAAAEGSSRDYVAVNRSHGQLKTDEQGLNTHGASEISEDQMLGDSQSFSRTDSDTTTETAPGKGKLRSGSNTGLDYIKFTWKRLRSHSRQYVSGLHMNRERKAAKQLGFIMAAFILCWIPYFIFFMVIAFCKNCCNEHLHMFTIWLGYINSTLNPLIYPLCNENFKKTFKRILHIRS
Reported Metric: pKi
Quick note: pKi means taking -log10 of the concentration in moles per liter.

Any idea what pKi was measured for COCCOc1cc(CC2CCN(CCc3ccc4c(c3)C(=O)CCO4)CC2)ccc1Br.O=S(=O)(O)c1ccccc1 [DSP-1053] ?
8.13

====

- Assay Info: Pharmacokinetics of DSP-1053 in male rats
- Assay type: in vivo
- Measurement Context: Crl:CD(SD), rat, plasma, po, 10 mg/kg
Reported Metric: Tmax

Any idea what Tmax was measured for COCCOc1cc(CC2CCN(CCc3ccc4c(c3)C(=O)CCO4)CC2)ccc1Br.O=S(=O)(O)c1ccccc1 [DSP-1053] ?
≤ 1 h
